System: BM-1604
method-notes: cells
Set-up: species or system panel of human cancer cell lines; Eurofins OncoPanel proliferation; nuclei count by high-content fluorescence imaging, 10-point dose response
test-context: BM-1604, 72 h; cell count, curve inflection point, 3 days
quantity-measured: pEC50
# pEC50 is unitless: minus log10 of the molar concentration; print number only

// query pEC50 value for entry C[C@@H]1CC(=O)NN=C1c1ccc(NN=C(C#N)C#N)cc1
4.90

---

Test system: MEG01
method-notes: cells
Parameters: species or system panel of human cancer cell lines; Eurofins OncoPanel proliferation; nuclei count by high-content fluorescence imaging, 10-point dose response
test-context: Homo sapiens, MEG-01, 72 h; cell count, 50% of maximum possible response, 3 days
quantity-measured: IC50

// query IC50 value for entry C[C@@H]1CC(=O)NN=C1c1ccc(NN=C(C#N)C#N)cc1
83.2 µM
